src = paper PMC6146285

# Tested on: hiPSC-CMs
# Type: cell-based, human
# assayConditions: all sites and cell types; dose levels of Table 3
measurementKind: Arrhythmia detection starting at (dose level)

CC(C)NCC(O)c1ccc(NS(C)(=O)=O)cc1 (stereo not shown): dose 3
CC(C)N(CCC(C(N)=O)(c1ccccc1)c1ccccn1)C(C)C (stereo not shown) [Disopyramide]: dose 3
COc1cc2c(Nc3ccc(Br)cc3F)ncnc2cc1OCC1CCN(C)CC1: dose 3

====

# System: hiPSC-CMs
# Type: cell-based, human
# assayConditions: 30 min post compound addition; low risk compounds
measurementKind: FPDmax compared to pre-addition values

CCOC(=O)C1=C(C)NC(C)=C(C(=O)OC)C1c1cccc([N+](=O)[O-])c1 (stereo not shown): decrease
COc1ccc([C@@H]2Sc3ccccc3N(CCN(C)C)C(=O)[C@@H]2OC(C)=O)cc1: decrease
COC(=O)C1=C(C)NC(C)=C(C(=O)OC)C1c1ccccc1[N+](=O)[O-]: decrease
